tested on: MDA 468 mammary (ER-/EGFR+); test: In vitro cytotoxicity assay; assay type: cell-based, human; conditions: Homo sapiens, MDA 468; read-out: estimated IC50
pIC50: −log10 of the molar value.
Measured Quantity: pIC50

Can you share its pIC50? I mean this compound: Nc1ccc(-c2nc3ccccc3s2)cc1
~8.80

###

system: HT29 colon carcinoma; assay: In vitro cytotoxicity assay; type: cell-based; conditions: Homo sapiens, HT-29; 2nd series of experiments
Measured Quantity: IC50

Can you share its IC50? I mean this compound: Nc1ccc(-c2nc3ccccc3s2)cc1
33 µM

###

assay: Lethal dose (LD50) determination; type: in vivo; settings: male, DBA/2, mouse, in vivo, ip; single i.p. dose; read-out: LD50
Measured Quantity: LD50

Can you share its LD50? I mean this compound: Nc1ccc(-c2nc3ccccc3s2)cc1
~125 mg/kg

###

system: T24 bladder carcinoma; assay: In vitro cytotoxicity assay; type: cell-based; details: Homo sapiens; 2nd series of experiments
Measured Quantity: IC50 (µM)
Your answer should be a plain number; it is taken to be in µM.

Can you share its IC50? I mean this compound: Nc1ccc(-c2nc3ccccc3s2)cc1
75

###

test system: MCF-7 mammary carcinoma cells; assay: In vitro cytotoxicity assay (cell growth, propidium iodide fluorescence); format: cell-based, human; conditions: Homo sapiens, MCF7, MCF-7 (wild type) cells; read-out: IC50
Measured Quantity: IC50 (nM)
Your answer should be a plain number; it is taken to be in nM.

Can you share its IC50? I mean this compound: Nc1ccc(OS(=O)(=O)C(F)(F)F)c(-c2nc3ccccc3s2)c1
50

###

test system: CH 1/CisR; assay: In vitro cytotoxicity assay; format: cell-based; details: Homo sapiens, CH1cisR; 2nd series of experiments
Measured Quantity: IC50 (µM)
Your answer should be a plain number; it is taken to be in µM.

Can you share its IC50? I mean this molecule: Nc1ccc(-c2nc3ccccc3s2)cc1
33

###

tested on: ZR 75 mammary (ER+); experiment: In vitro cytotoxicity assay; type: cell-based; details: Homo sapiens, ZR75; ZR 75; read-out: estimated IC50
pIC50: −log10 of the molar value.
Measured Quantity: pIC50

Can you share its pIC50? I mean this compound: Nc1ccc(-c2nc3ccccc3s2)cc1
~7.61

###

system: P388 cells; experiment: In vitro cytotoxicity assay; type: cell-based; conditions: Mus musculus
Measured Quantity: pIC50
Expect pIC50 as a plain number equal to -log10 of the molar concentration.

# value lookup — system P388 cells, readout pIC50, item Nc1ccc(-c2nc3ccccc3s2)cc1
4.57
